Reference source: paper PMC7845594

Tested on: C. elegans host defense pathway genes
Assay: nanoString expression of 115 immune- and stress-responsive genes
Conditions: 100 μM LK molecules, 16 h
Label t for high-side F55G11.2 expression, induction (at or above 2 fold) and f for low-side F55G11.2 expression, induction (below it).

The following molecules have reported results that may help.
MOLECULE: CNC(=O)Oc1c(Br)cc2sc(=O)oc2c1Br
CLASS ASSIGNMENT: f

MOLECULE: CCN(CC)/N=N/c1ccc(C(=O)O)cc1
CLASS ASSIGNMENT: t

Decide: F55G11.2 expression, induction of "CN(C)/N=N/c1ccc(-c2cn(Cc3ccccc3)cn2)cc1" >= 2 fold? t

###

Test system: C. elegans host defense pathway genes
Experiment: nanoString expression of 115 immune- and stress-responsive genes
Details: 100 μM LK molecules, 16 h
TEST READOUT: C12C8.1 hsp-70 expression, induction (fold)
Answer with a number only, understood to be in fold.

Examples with answers:
COMPOUND: COC(=O)/C=C/C(=O)Nc1ccccc1 [LK32]
EXPERIMENTAL RESULT: 3.77

COMPOUND: CNC(=O)Oc1c(Br)cc2sc(=O)oc2c1Br [LK34]
EXPERIMENTAL RESULT: 2.02

COMPOUND: CCN(CC)/N=N/c1ccc(C(=O)O)cc1 [LK35]
EXPERIMENTAL RESULT: 9.31

COMPOUND: Cc1cc(C2CCCCC2)n(O)c(=O)c1 [Ciclopirox, reference compound]
EXPERIMENTAL RESULT: 3.28

COMPOUND: O=c1cc(CNc2ccc(Br)cc2)nc2sccn12 [LK56]
EXPERIMENTAL RESULT: 1.04

# next compound below
// sample CN(C)/N=N/c1ccc(-c2cn(Cc3ccccc3)cn2)cc1 [LK38] , its C12C8.1 hsp-70 expression, induction was 0.53

###

System: C. elegans host defense pathway genes
Assay: nanoString expression of 115 immune- and stress-responsive genes
Conditions: 100 μM LK molecules, 16 h
TEST READOUT: F59A7.1 clec-206 expression, induction (fold)
Provide the reading as a plain figure in fold.

Quick note, F59A7.1 clec-206 expression, induction for "CNC(=O)Oc1c(Br)cc2sc(=O)oc2c1Br" landed at 2.12

F59A7.1 clec-206 expression, induction reported for this molecule "O=c1cc(CNc2ccc(Br)cc2)nc2sccn12" : 12.55

###

In this section we review reported TD50 (time to 50% death), life span values for a set of compounds.
Tested on: glp-4(bn2) worms
Assay: Longevity (life span) assay
Conditions: 50 μM in NGM, E. coli OP50, Fig 3A
Field note: include the unit after the figure.

Example entries begin here.
COMPOUND: CCN(CC)/N=N/c1ccc(C(=O)O)cc1 [LK35]
TD50 (time to 50% death), life span: 7.7 days
--
COMPOUND: O=c1cc(CNc2ccc(Br)cc2)nc2sccn12 [LK56]
TD50 (time to 50% death), life span: 7.8 days
--
COMPOUND: CN(C)/N=N/c1ccc(-c2cn(Cc3ccccc3)cn2)cc1 [LK38]
TD50 (time to 50% death), life span: 7.6 days
--
COMPOUND: CNC(=O)Oc1c(Br)cc2sc(=O)oc2c1Br [LK34]
TD50 (time to 50% death), life span: 10.1 days

Let's switch to this compound now.
Field TD50 (time to 50% death), life span (entry COC(=O)/C=C/C(=O)Nc1ccccc1 [LK32] ) reads 8.8 days

###

Tested on: C. elegans host defense pathway genes
Experiment: nanoString expression of 115 immune- and stress-responsive genes
Details: 100 μM LK molecules, 16 h
TEST READOUT: R08H2.1 dhs-23 expression, induction (fold)
Use fold as the unit, but write only the number.

MOLECULE: COC(=O)/C=C/C(=O)Nc1ccccc1
TARGET SYSTEM: C. elegans host defense pathway genes
TEST READOUT: R08H2.1 dhs-23 expression, induction
EXPERIMENTAL RESULT: 2.72

R08H2.1 dhs-23 expression, induction for "CCN(CC)/N=N/c1ccc(C(=O)O)cc1" is 121.17

// "CNC(=O)Oc1c(Br)cc2sc(=O)oc2c1Br" : R08H2.1 dhs-23 expression, induction value = 3.44

get_value(item= "O=c1cc(CNc2ccc(Br)cc2)nc2sccn12" , readout=R08H2.1 dhs-23 expression, induction) returns 182.18

Lab book: R08H2.1 dhs-23 expression, induction of Cc1cc(C2CCCCC2)n(O)c(=O)c1 [Ciclopirox, reference compound] noted as 120.99

Field R08H2.1 dhs-23 expression, induction (entry "CN(C)/N=N/c1ccc(-c2cn(Cc3ccccc3)cn2)cc1" ) reads 243.00

###

Test system: C. elegans host defense pathway genes
Experiment: nanoString expression of 115 immune- and stress-responsive genes
Conditions: 100 μM LK molecules, 16 h
R10E8.3 expression, induction below 3 fold gives condition not met; R10E8.3 expression, induction at or above it gives condition met.

Solved cases below.
COMPOUND: COC(=O)/C=C/C(=O)Nc1ccccc1 [LK32]
CLASS ASSIGNMENT: condition met
//
COMPOUND: O=c1cc(CNc2ccc(Br)cc2)nc2sccn12 [LK56]
CLASS ASSIGNMENT: condition not met
//
COMPOUND: Cc1cc(C2CCCCC2)n(O)c(=O)c1 [Ciclopirox, reference compound]
CLASS ASSIGNMENT: condition met
//
COMPOUND: CN(C)/N=N/c1ccc(-c2cn(Cc3ccccc3)cn2)cc1 [LK38]
CLASS ASSIGNMENT: condition not met
//
COMPOUND: CNC(=O)Oc1c(Br)cc2sc(=O)oc2c1Br [LK34]
CLASS ASSIGNMENT: condition not met

Turning to the following compound.
Decide: is the reported value of R10E8.3 expression, induction for CCN(CC)/N=N/c1ccc(C(=O)O)cc1 [LK35] equal to or greater than 3 fold? condition met

###

As shown below, each of these molecules has a reported F44E5.5 expression, induction value.
System: C. elegans host defense pathway genes
Test: nanoString expression of 115 immune- and stress-responsive genes
Conditions: 100 μM LK molecules, 16 h
Report the value in fold with no unit label.

See these solved cases before continuing.
MOLECULE: CN(C)/N=N/c1ccc(-c2cn(Cc3ccccc3)cn2)cc1
UNIT SPEC: fold
EXPERIMENTAL RESULT: 0.94
//
MOLECULE: COC(=O)/C=C/C(=O)Nc1ccccc1
UNIT SPEC: fold
EXPERIMENTAL RESULT: 3.34
//
MOLECULE: O=c1cc(CNc2ccc(Br)cc2)nc2sccn12
UNIT SPEC: fold
EXPERIMENTAL RESULT: 1.42

Field F44E5.5 expression, induction (entry Cc1cc(C2CCCCC2)n(O)c(=O)c1 [Ciclopirox, reference compound] ) reads 2.67

// F44E5.5 expression, induction value for "CCN(CC)/N=N/c1ccc(C(=O)O)cc1" : 8.59

The molecule listed as "CNC(=O)Oc1c(Br)cc2sc(=O)oc2c1Br" has a reported F44E5.5 expression, induction of 1.49

###

Test system: C. elegans host defense pathway genes
Assay: nanoString expression of 115 immune- and stress-responsive genes
Settings: 100 μM LK molecules, 16 h
TEST READOUT: W02D9.10 expression, induction (fold)
Respond numerically; units are fold and should not be typed.

Past entries and their recorded results:
MOLECULE: O=c1cc(CNc2ccc(Br)cc2)nc2sccn12
TEST READOUT: W02D9.10 expression, induction
UNIT SPEC: fold
EXPERIMENTAL RESULT: 2.27
//
MOLECULE: Cc1cc(C2CCCCC2)n(O)c(=O)c1 [Ciclopirox, reference compound]
TEST READOUT: W02D9.10 expression, induction
UNIT SPEC: fold
EXPERIMENTAL RESULT: 2.74
//
MOLECULE: CN(C)/N=N/c1ccc(-c2cn(Cc3ccccc3)cn2)cc1
TEST READOUT: W02D9.10 expression, induction
UNIT SPEC: fold
EXPERIMENTAL RESULT: 0.89
//
MOLECULE: COC(=O)/C=C/C(=O)Nc1ccccc1
TEST READOUT: W02D9.10 expression, induction
UNIT SPEC: fold
EXPERIMENTAL RESULT: 4.35
//
MOLECULE: CCN(CC)/N=N/c1ccc(C(=O)O)cc1
TEST READOUT: W02D9.10 expression, induction
UNIT SPEC: fold
EXPERIMENTAL RESULT: 7.18

Now turn to the next molecule.
Consider "CNC(=O)Oc1c(Br)cc2sc(=O)oc2c1Br" . Its measured W02D9.10 expression, induction is 1.15

###

Test system: C. elegans host defense pathway genes
Assay: nanoString expression of 115 immune- and stress-responsive genes
Conditions: 100 μM LK molecules, 16 h
Overview of recorded B0024.4 expression, induction for various molecules
Numeric only. Scale: fold

Solved entries (count: 5):
MOLECULE: CNC(=O)Oc1c(Br)cc2sc(=O)oc2c1Br
UNIT SPEC: fold
EXPERIMENTAL RESULT: 0.79
//
MOLECULE: CN(C)/N=N/c1ccc(-c2cn(Cc3ccccc3)cn2)cc1
UNIT SPEC: fold
EXPERIMENTAL RESULT: 3.17
//
MOLECULE: Cc1cc(C2CCCCC2)n(O)c(=O)c1 [Ciclopirox, reference compound]
UNIT SPEC: fold
EXPERIMENTAL RESULT: 1.09
//
MOLECULE: CCN(CC)/N=N/c1ccc(C(=O)O)cc1
UNIT SPEC: fold
EXPERIMENTAL RESULT: 0.69
//
MOLECULE: COC(=O)/C=C/C(=O)Nc1ccccc1
UNIT SPEC: fold
EXPERIMENTAL RESULT: 2.44

response.value for "O=c1cc(CNc2ccc(Br)cc2)nc2sccn12" (field: B0024.4 expression, induction) = 2.13
